assay: Inhibition of [3H]- epibatidine binding at the Nicotinic acetylcholine receptor alpha beta (nAChR) in male rat cerebral cortex; format: tissue-based
Reported Ki values for a set of compounds
Dear colleague, please return just the value in nM, with no unit written.

Oc1ccc([C@H]2CC3CCC2N3)cn1 (stereo partly drawn) ... 1.5
Nc1ccc([C@H]2CC3CCC2N3)cn1 (stereo partly drawn) ... 1.3

In the following, a different compound is considered.
Look up Ki: Nc1ncc([C@H]2CC3CCC2N3)cc1Br (stereo partly drawn)
0.29
